target: Protein cereblon/Bromodomain-containing protein 4 (Homo sapiens, UniProt O60885+Q96SW2); assay: Protac activity at CRBN/BRD4 in human 22Rv1 cells assessed as c-MYC degradation after 18 hrs by ELISA
Sequence (Q96SW2 whole entry, looked up, other chains not shown): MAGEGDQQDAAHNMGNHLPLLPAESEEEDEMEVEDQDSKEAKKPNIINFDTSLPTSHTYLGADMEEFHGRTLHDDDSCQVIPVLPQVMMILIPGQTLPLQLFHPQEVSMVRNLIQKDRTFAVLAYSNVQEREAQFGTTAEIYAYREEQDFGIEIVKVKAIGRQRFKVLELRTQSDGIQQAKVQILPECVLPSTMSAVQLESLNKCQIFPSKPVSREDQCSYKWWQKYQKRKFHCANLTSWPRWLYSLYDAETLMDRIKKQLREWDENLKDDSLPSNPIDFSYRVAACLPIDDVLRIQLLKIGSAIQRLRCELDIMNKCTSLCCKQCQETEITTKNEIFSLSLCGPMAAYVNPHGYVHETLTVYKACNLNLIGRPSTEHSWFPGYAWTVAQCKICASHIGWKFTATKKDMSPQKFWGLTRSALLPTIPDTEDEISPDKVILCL
Recorded measurements of IC50, one per entry

Cc1sc2c(c1C)C(c1ccc(Cl)cc1)=NC(CC(=O)N[C@@H](C)c1ccc(OCCOCCNc3cccc4c3C(=O)N(C3CCC(=O)NC3=O)C4=O)cc1)c1nnc(C)n1-2 (some centres not stated) = < 50 nM

Okay, next one:
Lab book: IC50 of Cc1sc2c(c1C)C(c1ccc(Cl)cc1)=NC(CC(=O)NCCOCCNc1cccc3c1C(=O)N(C1CCC(=O)NC1=O)C3=O)c1nnc(C)n1-2 (configuration not stated) noted as < 50 nM
